Target: Peroxisome proliferator-activated receptor gamma (Homo sapiens, UniProt P37231)
Sequence (P37231 whole entry): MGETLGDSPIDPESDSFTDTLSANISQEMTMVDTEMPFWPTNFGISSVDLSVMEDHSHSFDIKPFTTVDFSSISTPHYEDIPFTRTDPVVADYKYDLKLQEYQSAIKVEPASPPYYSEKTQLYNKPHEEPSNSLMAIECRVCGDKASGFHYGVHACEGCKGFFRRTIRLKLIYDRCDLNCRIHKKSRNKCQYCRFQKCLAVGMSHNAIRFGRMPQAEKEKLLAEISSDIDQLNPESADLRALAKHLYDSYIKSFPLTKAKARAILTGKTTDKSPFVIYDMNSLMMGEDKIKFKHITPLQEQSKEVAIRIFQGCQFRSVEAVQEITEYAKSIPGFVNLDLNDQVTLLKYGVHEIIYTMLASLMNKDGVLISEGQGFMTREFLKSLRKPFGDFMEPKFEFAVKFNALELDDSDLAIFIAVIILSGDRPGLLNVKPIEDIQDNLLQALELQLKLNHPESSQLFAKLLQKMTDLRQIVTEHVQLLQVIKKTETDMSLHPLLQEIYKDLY
pEC50: −log10 of the molar value.
# cutoff 6 applies to pEC50; >= gives true, < gives false

API: above_or_equal(metric=pEC50, cutoff=6) for item `CCCc1c(OCCCn2ccc3c(OC(C)(C)C(=O)O)cccc32)ccc2cc(C(=O)c3ccccc3)ccc12`
true

API: above_or_equal(metric=pEC50, cutoff=6) for item `CCCc1c(OCCCn2ccc3ccc(OC(C)(C)C(=O)O)cc32)ccc2cc(C(=O)c3ccccc3)ccc12`
true

API: above_or_equal(metric=pEC50, cutoff=6) for item `CCCc1c(OCCCn2ccc3cc(OC(C)(C)C(=O)O)ccc32)ccc2cc(C(=O)c3ccccc3)ccc12`
true

API: above_or_equal(metric=pEC50, cutoff=6) for item `CCCc1c(OCCCn2ccc3ccc(OCC(=O)O)cc32)ccc2cc(C(=O)c3ccccc3)ccc12`
false

API: above_or_equal(metric=pEC50, cutoff=6) for item `CCCc1c(OCCCn2ccc3cc(OCC(=O)O)ccc32)ccc2cc(C(=O)c3ccccc3)ccc12`
false

API: above_or_equal(metric=pEC50, cutoff=6) for item `CCCc1c(OCCCn2ccc3c(OCC(=O)O)cccc32)ccc2cc(C(=O)c3ccccc3)ccc12`
false
